Tested on: E. histolytica HM1: IMSS
Method summary: Trophozoite viability IC50 determination, Amebae assay (ATPLite)
Format: cell-based
Condition label: Entamoeba histolytica; trophozoites, 72 hr, anaerobic, ATP level; read-out: Cell viability values Mean IC50 (nM) E. histolytica HM1: IMSS
# IC50 per record follows

{"Compound": "CO[C@@H]1[C@H](OC(=O)N(C)c2ccc(B(O)O)cc2)CC[C@]2(CO2)[C@H]1[C@@]1(C)O[C@@H]1CC=C(C)C", "IC50": "101 to 1000 nM"}
{"Compound": "CO[C@@H]1[C@H](OC(=O)Nc2ccc3c(c2)C(C)OB3O)CC[C@]2(CO2)[C@H]1[C@@]1(C)O[C@@H]1CC=C(C)C (stereo partly drawn)", "IC50": "< 10 nM"}
{"Compound": "CO[C@@H]1[C@H](OC(=O)N(C)c2ccc3c(c2)B(O)OCC3)CC[C@]2(CO2)[C@H]1[C@@]1(C)O[C@@H]1CC=C(C)C", "IC50": "101 to 1000 nM"}
